This section lists pIC50 readings for Human DYRK1A (Homo sapiens, UniProt Q13627).
Convention used: pIC50 is expressed as -log10 of the molar concentration.

Below: 6 compounds and their reported pIC50.
{"COMPOUND": "COCCOc1cc2cc(C(=O)Nc3cc(C(=O)OC)ccc3C)c(=O)[nH]c2cc1OC", "STUDY_SYSTEM": "Human DYRK1A (Homo sapiens, UniProt Q13627)", "pIC50": 6.58}
{"COMPOUND": "COCCOc1cc2[nH]c(=O)c(C(=O)Nc3cc(C(=O)OC)ccc3C)cc2cc1OC", "STUDY_SYSTEM": "Human DYRK1A (Homo sapiens, UniProt Q13627)", "pIC50": 5.29}
{"COMPOUND": "COc1cc2cc(C(=O)Nc3cc(C(=O)NC(CCN)c4ccccc4)ccc3C)c(=O)[nH]c2cc1OC (stereo not drawn) [Example 35]", "STUDY_SYSTEM": "Human DYRK1A (Homo sapiens, UniProt Q13627)", "pIC50": 6.81}
{"COMPOUND": "COCCOc1cc2cc(C(=O)Nc3cc(C(=O)NC(CN)c4ccccc4)ccc3Cl)c(=O)[nH]c2cc1OC (stereo not drawn)", "STUDY_SYSTEM": "Human DYRK1A (Homo sapiens, UniProt Q13627)", "pIC50": 7.94}
{"COMPOUND": "COCCOc1cc2cc(C(=O)Nc3cc(C(=O)NCc4cccc(Cl)c4)ccc3Cl)c(=O)[nH]c2cc1OC", "STUDY_SYSTEM": "Human DYRK1A (Homo sapiens, UniProt Q13627)", "pIC50": 7.31}
{"COMPOUND": "COC(=O)c1ccc(C)c(NC(=O)c2cc3cc(OCCN4CCOCC4)c(OC)cc3[nH]c2=O)c1", "STUDY_SYSTEM": "Human DYRK1A (Homo sapiens, UniProt Q13627)", "pIC50": 6.82}

Q. Provide pIC50, tested on Human DYRK1A (Homo sapiens, UniProt Q13627), for COCCOc1cc2cc(C(=O)Nc3cc(C(=O)NC(CCN)c4ccccc4)ccc3C)c(=O)[nH]c2cc1OC (stereo not drawn) .
A. 7.46

Q. Provide pIC50, tested on Human DYRK1A (Homo sapiens, UniProt Q13627), for COc1cc2cc(C(=O)Nc3cc(C(=O)N[C@H](CO)CC(C)C)ccc3C)c(=O)[nH]c2cc1OC .
A. 5.37

Q. Provide pIC50, tested on Human DYRK1A (Homo sapiens, UniProt Q13627), for COc1cc2c(cc1OC)NC(=O)C(C(=O)Nc1cc(C(=O)NCc3ccccc3)ccc1Cl)C2 (stereo not drawn) .
A. 6.06

###

This section lists pIC50 readings for Human DYRK1B (Homo sapiens).
Convention used: pIC50 is expressed as -log10 of the molar concentration.

{"MOLECULE": "COC(=O)c1ccc(C)c(NC(=O)c2cc3cc(OC)c(OC)cc3[nH]c2=O)c1", "pIC50": 6.25}

Q. Provide pIC50, tested on Human DYRK1B (Homo sapiens), for COCCOc1cc2cc(C(=O)Nc3cc(C(=O)NC(CN)c4ccccc4)ccc3Cl)c(=O)[nH]c2cc1OC (stereo not shown) .
Sequence (Q9Y463 whole entry): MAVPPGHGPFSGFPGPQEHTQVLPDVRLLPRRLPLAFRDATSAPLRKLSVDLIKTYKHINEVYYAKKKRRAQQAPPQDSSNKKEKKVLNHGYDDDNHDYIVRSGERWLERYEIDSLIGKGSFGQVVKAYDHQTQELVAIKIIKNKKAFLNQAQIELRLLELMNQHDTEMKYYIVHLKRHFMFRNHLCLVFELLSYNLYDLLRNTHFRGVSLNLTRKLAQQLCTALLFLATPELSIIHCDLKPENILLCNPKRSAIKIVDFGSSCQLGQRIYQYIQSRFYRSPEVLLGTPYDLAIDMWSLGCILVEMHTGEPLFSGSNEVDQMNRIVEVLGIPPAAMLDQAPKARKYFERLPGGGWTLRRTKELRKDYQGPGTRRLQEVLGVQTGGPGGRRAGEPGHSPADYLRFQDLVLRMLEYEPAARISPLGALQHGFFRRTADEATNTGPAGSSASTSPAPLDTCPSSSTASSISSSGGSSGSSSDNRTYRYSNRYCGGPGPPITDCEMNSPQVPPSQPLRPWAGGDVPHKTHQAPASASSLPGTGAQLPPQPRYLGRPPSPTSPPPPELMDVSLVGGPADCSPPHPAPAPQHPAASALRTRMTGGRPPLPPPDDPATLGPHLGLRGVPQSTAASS
A. 7.54

Q. Provide pIC50, tested on Human DYRK1B (Homo sapiens), for COCCOc1cc2cc(C(=O)Nc3cc(-c4nnn[nH]4)ccc3C)c(=O)[nH]c2cc1OC .
A. 5.57
